protocolSummary: Brain to Plasma (B:P) ratio in mice
Format: in vivo
experimentalParameters: mouse, brain/plasma, 10 mg/kg po, 2 hours post-dose
Counter-ions that a name gives are not always drawn.
Please go through the items and note down their Kp at 2 h.
Write no unit; give the number alone.

// query Param item = Cc1ccc(NNC(=O)/C=C\n2cnc(-c3cc(C(F)(F)F)cc(C(F)(F)F)c3)n2)nc1 [Compound I-10] ; retrieve measured Kp at 2 h.
// result 0.77

// query Note, next up: O=C(/C=C\n1cnc(-c2cc(C(F)(F)F)cc(C(F)(F)F)c2)n1)NNc1cc(Cl)ncn1 [Compound I-12]
// result 0.13

// query What do we get for CN(NC(=O)/C=C\n1cnc(-c2cc(C(F)(F)F)cc(C(F)(F)F)c2)n1)c1ccccn1 [Compound I-7] ?
// result 1.5

// query Also, CN(NC(=O)/C=C\n1cnc(-c2cc(C(F)(F)F)cc(C(F)(F)F)c2)n1)c1cnccn1 [Compound I-8] please.
// result 2.1

// query Same question for O=C(/C=C\n1cnc(-c2cc(C(F)(F)F)c(Cl)c(C(F)(F)F)c2)n1)NNc1cnccn1 [Compound I-24] please.
// result 0.7

// query Same read-out for O=C(/C=C\n1cnc(-c2cc(C(F)(F)F)cc(C(F)(F)F)c2)n1)NNc1ccncc1 [Compound I-19, hydrochloride] ?
// result 0.2

====

System: MCF12A
protocolSummary: Cell proliferation assay, MCF12A
Format: cell-based
experimentalParameters: Homo sapiens, MCF-12A, type BaB, 72 h
assayEndpoint: IC50 (nM)
Respond with the bare value in nM.

// query Field request: IC50 | item: O=C(/C=C\n1cnc(-c2cc(C(F)(F)F)cc(C(F)(F)F)c2)n1)NNc1cnccn1
// result 150

====

System: HCC-1569
protocolSummary: Cell proliferation assay, HCC-1569
Format: cell-based
experimentalParameters: Homo sapiens, HCC1569; HCC-1569, type BaA, 72 h
assayEndpoint: IC50 (nM)
Entry rule: numbers only, all in nM.

// query I would be grateful if you could share the reported IC50 for O=C(/C=C\n1cnc(-c2cc(C(F)(F)F)cc(C(F)(F)F)c2)n1)NNc1cnccn1 [Compound I-3] .
// result 960

====

Tested on: MDA-MB-157
protocolSummary: Cell proliferation assay, MDA-MB-157
Type: cell-based
experimentalParameters: Homo sapiens; MDA-MB-157, type BaB, 72 h
assayEndpoint: pIC50
In plain terms, pIC50 is the concentration in mol/L turned into minus its base-10 logarithm.

// query // lookup pIC50 for O=C(/C=C\n1cnc(-c2cc(C(F)(F)F)cc(C(F)(F)F)c2)n1)NNc1cnccn1
// result 5.89

====

protocolSummary: Pharmacokinetic (PK) assay, plasma AUC in mice
Assay type: in vivo
experimentalParameters: mouse, plasma, 10 mg/kg po
Structures can show the parent of a compound that is named as a salt.
assayEndpoint: AUC(0-inf) (ng·h/mL)
// return numeric value only (unit: ng·h/mL, not printed)

// query Recorded AUC(0-inf) of O=C(/C=C\n1cnc(-c2cc(C(F)(F)F)c(Cl)c(C(F)(F)F)c2)n1)NNc1cnccn1 [Compound I-24] , please.
// result 3350

// query // next record CN(NC(=O)/C=C\n1cnc(-c2cc(C(F)(F)F)cc(C(F)(F)F)c2)n1)c1cnccn1 [Compound I-8]
// result 4600

// query Follow-up item: CN(NC(=O)/C=C\n1cnc(-c2cc(C(F)(F)F)cc(C(F)(F)F)c2)n1)c1ccccn1 [Compound I-7]
// result 12200

// query Then what about the compound O=C(/C=C\n1cnc(-c2cc(C(F)(F)F)cc(C(F)(F)F)c2)n1)NNc1ccncc1 [Compound I-19, hydrochloride] ?
// result 4020
